Listing of recorded kinase still bound, per cent of control by entry.
# target: UniProt:Q9NRH2
# Sequence (Q9NRH2 whole entry, looked up): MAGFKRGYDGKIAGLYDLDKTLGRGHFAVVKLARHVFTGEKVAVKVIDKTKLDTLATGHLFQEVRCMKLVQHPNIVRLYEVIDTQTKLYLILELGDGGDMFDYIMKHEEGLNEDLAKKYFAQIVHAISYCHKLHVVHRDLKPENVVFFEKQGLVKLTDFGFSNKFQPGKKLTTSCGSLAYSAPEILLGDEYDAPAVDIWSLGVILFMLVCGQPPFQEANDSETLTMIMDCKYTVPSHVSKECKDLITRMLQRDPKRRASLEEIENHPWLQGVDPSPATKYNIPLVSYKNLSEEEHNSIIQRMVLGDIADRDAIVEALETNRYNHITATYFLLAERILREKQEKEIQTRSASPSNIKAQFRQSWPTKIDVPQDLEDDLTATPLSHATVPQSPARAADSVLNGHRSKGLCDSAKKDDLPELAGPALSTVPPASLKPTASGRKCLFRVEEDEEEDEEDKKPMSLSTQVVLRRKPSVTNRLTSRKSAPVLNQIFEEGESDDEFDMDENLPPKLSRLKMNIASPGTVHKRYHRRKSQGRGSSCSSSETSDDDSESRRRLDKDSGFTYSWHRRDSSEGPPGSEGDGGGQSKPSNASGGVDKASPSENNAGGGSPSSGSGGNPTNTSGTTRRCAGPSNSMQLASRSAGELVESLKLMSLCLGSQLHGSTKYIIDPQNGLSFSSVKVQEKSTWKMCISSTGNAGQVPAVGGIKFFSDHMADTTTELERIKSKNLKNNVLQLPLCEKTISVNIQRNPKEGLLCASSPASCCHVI
# procedure.details: KINOMEscan competition binding
# particulars: compound 10.0 µM
measured.parameter: kinase still bound, per cent of control (%)

In [3]: df
Out[3]:
                           smiles_structure  readout_unit  quantitative_result
0  CNC(=O)Nc1ccc(-c2nc(N3CC4CCC(C3)O4)c3cnn(C4CCC5(CC4)OCCO5)c3n2)cc1             %                  100
1         COc1cc2ncnc(Nc3cccc(Cl)c3)c2cc1OC             %                   71
2  N#Cc1cc(-c2ccnc(Nc3ccc(-n4cnc(-c5cccnc5)n4)cc3)n2)cc(N2CCOCC2)c1             %                   90
3  CCN(CCO)CCCOc1ccc2c(Nc3cc(CC(=O)Nc4cccc(F)c4)[nH]n3)ncnc2c1             %                  100
